Every entry's value here was drawn from paper PMC2680982.

- measured-on: RLuc8 (Renilla luciferase variant) (Renilla reniformis, UniProt P27652, A55T/C124A/S130A/K136R/A143M/M185V/M253L/S287L)
- Construct: RLuc8 in pRSETB, purified on Ni-NTA from E. coli
- Sequence (P27652 1-311 A55T/C124A/S130A/K136R/A143M/M185V/M253L/S287L): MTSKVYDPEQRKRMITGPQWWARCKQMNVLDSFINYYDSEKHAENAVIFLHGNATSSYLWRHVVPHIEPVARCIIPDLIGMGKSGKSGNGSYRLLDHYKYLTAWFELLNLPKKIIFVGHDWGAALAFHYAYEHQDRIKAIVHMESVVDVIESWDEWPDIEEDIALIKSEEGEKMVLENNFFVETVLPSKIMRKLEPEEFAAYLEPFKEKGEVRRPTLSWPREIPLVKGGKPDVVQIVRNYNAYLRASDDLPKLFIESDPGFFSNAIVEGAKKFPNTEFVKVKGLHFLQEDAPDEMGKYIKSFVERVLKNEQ
- assay-method-text: bioluminescence inhibition of […] purified RLuc8 with coelenterazine-h titration
measured-attribute: pIC50
In plain terms, pIC50 is the concentration in mol/L turned into minus its base-10 logarithm.

Input line: // lookup pIC50 for O=S(=O)(NCCNC/C=C/c1ccc(Br)cc1)c1cccc2cnccc12
Output line: 4.68
